Measured values drawn from paper PMC5540273 for this set.

Test system: PRKG1
condition_notes: concentration: 1 μM, replicates: in singlicate; n = 1;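 also: KINOMEscan kinase panel screen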
readout_name: %Inh

1) c1ccc(-c2ccnc3[nH]ccc23)cc1	0%
2) COc1ccc(Nc2nccc(-c3ccc(NC(=O)c4cc5cc(F)ccc5[nH]4)cc3)n2)cc1	0%
3) Cc1cnc(N)c(/C=C/c2cncc(C(=O)NCCc3ccc(Cl)cc3Cl)c2)c1.Cl	10%
4) CCc1ccc(-c2ccc3c(c2)-c2n[nH]cc2S(=O)(=O)N3C)cc1	0%

====

Tested on: MKK7
condition_notes: concentration: 1 μM, replicates: in singlicate; n = 1
readout_name: %Inh (%)

1. Cc1cnc(N)c(/C=C/c2cncc(C(=O)NCCc3ccc(Cl)cc3Cl)c2)c1.Cl [GSK190937]	0
2. O=C(Nc1n[nH]c2cc(-c3ccsc3)ccc12)C1CC1 [SB-732932]	8
3. Nc1cccc(-c2ccc3c(N)n[nH]c3c2)n1 [GSK2192730]	0
4. COc1ccc(Nc2nccc(N3CCC(NC(=O)C(C)c4ccc(Cl)cc4)CC3)n2)cc1 (centres unmarked) [GSK1379812]	0
5. CC(=O)c1c(C)c2cnc(Nc3ccc(N4CCNCC4)cn3)nc2n(C2CCCC2)c1=O	0

====

Tested on: CLK2
condition_notes: concentration: 1 μM, replicates: in singlicate; n = 1
I would appreciate it if you labelled entries MET when %Inh is 8% or higher, otherwise NOT MET.

1. COC(=O)c1cccc(NC(=O)NC2CCN(c3ccnc(Nc4ccc(OC)cc4)n3)C2)c1 (stereo not drawn) [GSK1379746]	MET
2. Cc1ccccc1Cn1ccn2c(=O)cc(N3CCOCC3)nc12 [GSK2269905]	NOT MET
3. Cc1ccc(NC(=O)Nc2ccc(Cl)c(C(F)(F)F)c2)cc1-c1ccc(C(=O)Nc2ccncc2)cc1 [GSK1398470]	NOT MET
4. Fc1ccc(-c2nc[nH]c2-c2ccncc2)cc1 [SB-217360]	MET
5. COc1cccc(C2=C(Nc3cc(Cl)c(O)c(Cl)c3)C(=O)NC2=O)c1 [SB-390767]	NOT MET
6. CNc1nc(-c2ccc3c(N)n[nH]c3c2)cc(N2C[C@@H](C(=O)Nc3ccccc3)CC[C@H]2C)n1 [GSK2298859]	MET
7. O=C1NC(=O)C(c2ccc(Cl)cc2)=C1Nc1ccc(O)cc1 [SB-340867]	MET
8. COC(=O)C(NC(=O)NC1CCN(c2ccnc(Nc3ccc(F)cc3)n2)C1)c1ccccc1 (stereo not drawn) [GSK1379712]	NOT MET
9. CCn1c(-c2ccccc2)nc2cnccc21 [SB-733416]	NOT MET
10. COc1ccc2cc(-c3nc(-c4ccccc4C(C)C)[nH]c3-c3ccncc3)ccc2c1 [SB-660566]	NOT MET
11. Cc1cnc(N)c(/C=C/c2cncc(C(=O)NCCc3ccc(Cl)cc3Cl)c2)c1.Cl [GSK190937]	MET
12. COc1ccc(Nc2nccc(N3CCC(NC(=O)C(C)c4ccc(Cl)cc4)CC3)n2)cc1 (stereo not drawn) [GSK1379812]	MET
13. Cc1c(Cn2c3ccccc3n3c(=O)cc(N4CCOCC4)nc23)cccc1C(F)(F)F [GSK2306394]	MET
14. COc1ccc(-c2coc3ccc(-c4nnc(C)o4)cc23)cc1	MET
15. Fc1ccc(-c2nc3n(c2-c2ccncc2)CCS3)cc1 [GI98581]	NOT MET
16. O=c1cc(N2CCOCC2)nc2n(Cc3cccc(Cl)c3Cl)c3ccccc3n12 [GSK2299009]	NOT MET
17. COC(=O)c1cccc(NC(=O)NC2CCN(c3ccnc(Nc4ccc(F)cc4)n3)C2)c1 (stereo not drawn) [GSK1379725]	NOT MET

====

Tested on: MAP3K4
condition_notes: concentration: 1 μM, replicates: in singlicate; n = 1
readout_name: %Inh (%)

1) Cc1c(Cn2c3ccccc3n3c(=O)cc(N4CCOCC4)nc23)cccc1C(F)(F)F	18
2) Cc1c(Cn2c(C)c(C)n3c(=O)cc(N4CCOCC4)nc23)cccc1C(F)(F)F	9
3) Cn1cnc2c(N)ncnc21	0
4) CC(C)c1cc(-c2ccc3c(N)n[nH]c3c2)nc(N)n1	1
5) O=c1cc(N2CCOCC2)nc2n(Cc3ccccc3F)ccn12	0
6) CCCCc1nn2ncccc2c1-c1ccnc(NC2CC2)n1	6
7) CC(=O)c1cccc(NC(=O)NC2CCN(c3ccnc(Nc4ccc(F)cc4)n3)C2)c1 (stereo not drawn)	30
8) O=C(Nc1n[nH]c2cc(-c3ccsc3)ccc12)C1CC1	5
9) COC(=O)c1cccc(NC(=O)NC2CCN(c3ccnc(Nc4ccc(F)cc4)n3)C2)c1 (stereo not drawn)	24
10) CC(=O)c1c(C)c2cnc(Nc3ccn(C)n3)nc2n(C2CCCC2)c1=O	0
11) O=C(Nc1n[nH]c2nc(-c3ccco3)c(Br)cc12)C1CCN(Cc2ccccc2)C1.O=C(O)[C@H](O)[C@@H](O)C(=O)O (stereo not drawn)	0
12) O=C(Nc1n[nH]c2nc(-c3cccs3)c(Br)cc12)C1CCCC1	0
13) CNC(=O)c1ccc(C)c(-n2c(C)cc(OCc3ccc(F)cc3F)c(Br)c2=O)c1	6
14) COc1ccc(Nc2nccc(-c3ccc(NC(=O)c4cc5cc(F)ccc5[nH]4)cc3)n2)cc1	0
15) COc1cc2ncnc(Nc3cccc(Br)c3)c2cc1OC.Cl	4
16) CCn1c(-c2ccccc2)nc2cnccc21	0
17) COC(=O)C(Cc1ccccc1)NC(=O)NC1CCN(c2ccnc(Nc3ccc(F)cc3)n2)C1 (stereo not drawn)	0
18) CNc1cc(-c2ccc3c(N)n[nH]c3c2)nc(N)n1	0
19) COC(=O)C(NC(=O)NC1CCN(c2ccnc(Nc3ccc(F)cc3)n2)C1)c1ccccc1 (stereo not drawn)	6
20) Cc1ccc(-c2nc(Nc3ccncc3)c3ccccc3n2)s1	26
21) Fc1ccc(-c2nn3cccc(F)c3c2-c2ccncc2)cc1	0
22) O=C1NC(=O)C(c2ccc(Cl)cc2)=C1Nc1cccc(Cl)c1	1
23) CS(=O)(=O)CCNCc1nc(-c2ccc3ncnc(Nc4ccc(OCc5ccccc5)c(Cl)c4)c3c2)cs1.Cl	20
24) CS(=O)(=O)Cc1ccc(Nc2nccc(-c3c(-c4cccc(NC(=O)C5CCCCC5)c4)nn4ncccc34)n2)cc1	11
25) NS(=O)(=O)c1cccc(N/C=C2\C(=O)Nc3ccc(S(=O)(=O)Cc4c(Cl)cccc4Cl)cc32)c1	0
26) COc1ccc(Nc2nccc(NCCNC(=O)Nc3cc(C)ccc3C)n2)cc1	3
27) COC(=O)c1cccc(NC(=O)NC2CCN(c3ccnc(Nc4ccc(OC)cc4)n3)C2)c1 (stereo not drawn)	12
28) CNc1nc(-c2ccc3c(N)n[nH]c3c2)cc(N2C[C@@H](C(=O)Nc3ccccc3)CC[C@H]2C)n1	0
29) Cc1ccc(NC(=O)Nc2ccccc2)cc1-c1ccc(C(=O)Nc2ccncc2)cc1	0
30) O=C1NC(=O)C(c2ccc(Cl)cc2)=C1Nc1ccc(O)cc1	28
31) COc1ccc(Nc2nccc(N3CCC(NC(=O)C(C)c4ccc(Cl)cc4)C3)n2)cc1 (stereo not drawn)	16
32) Nc1cccc(-c2ccc3c(N)n[nH]c3c2)n1	25
33) Cc1nccc(-c2c(-c3ccc(F)cc3)ncn2CCCN2CCOCC2)n1.Cl	22
34) COc1ccc(CSc2nnc(-c3ccc4nccn4c3)o2)cc1C(F)(F)F	12
35) Cc1ccc(NC(=O)c2ccc(Cl)cc2)cc1-c1ccc(C(=O)Nc2ccncc2)cc1	0
36) FC(F)(F)c1ccccc1-c1cc(-c2c[nH]nc2-c2ccccn2)ccn1	24

====

Listed here: items and their measured %Inh.
Tested on: NEK4
condition_notes: concentration: 1 μM, replicates: in singlicate; n = 1
readout_name: %Inh (%)

1. Fc1ccc(-c2nc[nH]c2-c2ccncc2)cc1	0
2. CS(=O)(=O)Cc1ccc(Nc2nccc(-c3c(-c4cccc(NC(=O)C5CCCCC5)c4)nn4ncccc34)n2)cc1	25
3. CS(=O)(=O)CCNCc1nc(-c2ccc3ncnc(Nc4ccc(OCc5ccccc5)c(Cl)c4)c3c2)cs1.Cl	9
4. O=C1NC(=O)C(c2ccc(Cl)cc2)=C1Nc1ccc(O)cc1	0
5. O=C(Nc1n[nH]c2nc(-c3ccco3)c(Br)cc12)C1CCN(Cc2ccccc2)C1.O=C(O)[C@H](O)[C@@H](O)C(=O)O (stereo not drawn)	8
6. COc1ccc(-c2coc3ccc(-c4nnc(C)o4)cc23)cc1	17
7. O=C1NC(=O)C(c2ccc(Cl)cc2)=C1Nc1cccc(Cl)c1	0
8. COc1cccc(NC(=O)Nc2ccc(C)c(-c3ccc(C(=O)Nc4ccncc4)cc3)c2)c1	15
9. Nc1ncnc2occ(-c3ccc4c(c3)CCN4C(=O)Cc3cc(F)ccc3F)c12	0
10. Cc1cccc2c(-c3ccncn3)c(-c3ccc(F)cc3)nn12	0
11. COc1ccc(Nc2nccc(N3CCC(NC(=O)C(C)c4ccc(Cl)cc4)CC3)n2)cc1 (stereo not drawn)	0
12. CS(=O)(=O)CCNCc1nc(-c2ccc3ncnc(Nc4ccc5c(cnn5Cc5ccccc5)c4)c3c2)cs1.Cl.Cl	3
13. Cc1ccc(NC(=O)c2ccc(Cl)cc2)cc1-c1ccc(C(=O)Nc2ccncc2)cc1	0
14. CNCc1ccc2nc(NC(=O)c3ccc(C(C)(C)C)cc3)cn2c1	7
15. Cn1cncc1-c1cc2c(Nc3ccc(OCc4ccccc4)cc3)ncnc2cn1	5
16. CCn1c(-c2c(N)noc2C)nc2cnccc21	21
17. Cn1cnc2c(N)ncnc21	0
18. COc1ccc(Nc2nccc(N3CCC(NC(=O)C(C)c4ccc(Cl)cc4)C3)n2)cc1 (stereo not drawn)	10
